Reported inhibition values follow for various molecules
# assayProcedure: M. tuberculosis growth inhibition, HTS (AID 1259417);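 note: bacteria grown with compound for 5 days at 37 °C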
# conditionSummary: M. tuberculosis DsRed fluorescence growth inhibition; stronger effect = higher value; concentration not given here
Hit rate of the full screen: of about 1,100 compounds, about 760 (69%) were called active. The set was probably picked from earlier hits. The list shows a part of the results.
Number only, in %; omit the unit.

NC(=O)c1c(NC(=O)c2cc3ccccc3oc2=O)sc2c1CCCCCC2 :: 3.53
COc1cc(NC(=O)C(Cl)Cl)c(OC)cc1Cl :: 7.63
O=C1N(c2ccc3c(c2)OCCO3)C(c2ccccc2)C1(F)F (centres undefined) :: 36.5

# input for lookup
# inhibition of "Cc1ccccc1C(=O)Nc1nnc(-c2ccc(F)cc2)o1" = 75.4

----------
# assayProcedure: M. tuberculosis growth inhibition, HTS (AID 1259417);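 note: bacteria grown with compound for 5 days at 37 °C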
# conditionSummary: M. tuberculosis growth inhibition; stronger effect = higher value; concentration not given here
In all, about 1,100 compounds went through this assay and about 760 (69%) were called active. So high a share suggests a set chosen from earlier hits. This is one part of the list.
Classification field: Criterion met = inhibition at or over 20%; Criterion not met = inhibition under 20%.

# example entries with known answers
COc1ccc(C(=O)N2N=C(c3ccccc3)CC2(O)C(F)(F)F)cc1 (centres undefined) :: Criterion not met
COc1cc(NC(=O)C(Cl)Cl)c(OC)cc1Cl :: Criterion not met
COc1ccc(C(=O)C(CN2CCOCC2)c2ccccc2)cc1 (centres undefined) :: Criterion met
O=C(Nc1ccc(-c2nc3ccccc3c(=O)o2)cc1)c1ccccc1I :: Criterion met
O=C(Nc1nnc(-c2cc(Cl)ccc2Cl)o1)c1ccc(Cl)cc1Cl :: Criterion not met
N#Cc1ccc(C(=O)Nc2nnc(-c3ccc4c(c3)CCCC4)o2)cc1 :: Criterion met

Req: Confirm if inhibition reported for the compound CC1CCc2nc3sc4c(c3c(N)c2C1)CCCC4 (centres undefined) is 20% or above.
Resp: Criterion met

Req: Please check the record "O=[N+]([O-])c1ccc(/C=N/n2c(CO)nc3ccccc32)s1" and state if its inhibition is at or above 20%.
Resp: Criterion met

Req: Please tell me: is the compound "CCOC(=O)c1cnc2ccc(OC)cc2c1Nc1ccc2c(c1)OCCO2" at or over 20% in terms of inhibition?
Resp: Criterion met

----------
# assayProcedure: M. tuberculosis growth inhibition, HTS (AID 1259417);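 note: bacteria grown with compound for 5 days at 37 °C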
# conditionSummary: M. tuberculosis growth inhibition; stronger effect = higher value; concentration not given here
Screen size: about 1,100 compounds; about 760 (69%) were called active. So high a share suggests a set chosen from earlier hits. The list shows a part of the results.
true (1) means recorded inhibition is 60% or above; false (0) means it is below 60%.

Example results:
CCOC(=O)CSc1nc(C#N)c(SCC(=O)OCC)s1 :: true (1)
CCOC(=O)COc1ccc2c(=O)c(-c3ccccc3Cl)c(C)oc2c1C :: true (1)

Req: hey, is inhibition for this one >= 60%? "NC(=O)c1c(NC(=O)c2ccc(COc3ccccc3Cl)cc2)sc2c1CCCC2"
Resp: false (0)

Req: # check: inhibition of "Cc1ccccc1OC(=O)c1sc2ccccc2c1Cl" is greater than or equal to 60%
Resp: true (1)

Req: For this compound, is measured inhibition 60% or higher? "CC(=O)Oc1cccc2ccc(C=Cc3cccc(Br)c3)nc12"
Resp: true (1)

Req: Has "CC(C)C(=O)Nc1nnc(-c2ccc(Br)cc2)o1" a recorded inhibition greater than or equal to 60%?
Resp: false (0)

Req: In plain terms: is recorded inhibition at least 60% for "Oc1cccc2ccc(C=Cc3cccc(F)c3)nc12" ?
Resp: true (1)

Req: Hi, just wondering whether "O=C(C=Cc1cccc(C(F)(F)F)c1)Nc1cccc(Br)c1" shows inhibition of 60% or higher.
Resp: false (0)

Req: Textbook exercise: given the entry "Cc1c(OC(=O)c2ccccc2Cl)ccc2c1CCCC2" , state whether its inhibition is greater than or equal to 60%.
Resp: false (0)

----------
# assayProcedure: M. tuberculosis growth inhibition, HTS (AID 1259417);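 note: bacteria grown with compound for 5 days at 37 °C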
# conditionSummary: M. tuberculosis DsRed fluorescence growth inhibition; stronger effect = higher value; concentration not given here
About 760 (69%) of roughly 1,100 compounds were called active. So high a share suggests a set chosen from earlier hits. Some of the results follow.
inhibition listing for selected molecules.
Field format: number, assumed %, no unit text.

Worked examples follow.
Clc1cccc(Nc2nc(NCc3ccco3)c3ccccc3n2)c1 :: 41.8
Cc1ccc(Nc2nc(NCc3ccco3)c3ccccc3n2)cc1 :: 69

Next molecule, inhibition to be filled in.
Just so you know, measured inhibition for "N#CC(=CNc1ccccc1)c1nc2ccccc2[nH]1" came out at 34.4

----------
# assayProcedure: M. tuberculosis growth inhibition, HTS (AID 1259417);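 note: bacteria grown with compound for 5 days at 37 °C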
# conditionSummary: M. tuberculosis DsRed fluorescence growth inhibition; stronger effect = higher value; concentration not given here
The whole screen tested about 1,100 compounds, of which about 760 (69%) were called active. The set was probably picked from earlier hits. This is one part of the list.
The reader will find reported inhibition values listed item by item below.
Field: numeric (%). Do not append units.

Cc1cc(Nc2ccccc2)n(-c2nc3ccccc3[nH]2)n1 :: 86.8
CCOC(=O)c1cc(-c2csc(-c3ccc(C(F)(F)F)cc3)n2)on1 :: 63.4
CCCCOc1ccc(S(=O)(=O)Nc2ccc(I)cc2)cc1 :: -1.45
CCOC(=O)c1cc(-c2csc(COc3ccccc3Cl)n2)on1 :: 98.1
O=C(Nc1nc2c(Cl)cccc2s1)c1ccc([N+](=O)[O-])o1 :: -3.76
O=C(Nc1ccc(Cl)cc1C(F)(F)F)c1ccc([N+](=O)[O-])o1 :: 60.7
Brc1ccc2ncnc(Nc3ccc(N4CCCC4)cc3)c2c1 :: 100
CC(=NNc1nc(C)c(C)s1)c1ccc(Br)cc1 :: 96.2

Next up:
response.value for "COc1ccc(-c2c(C)[nH]n3c(=O)c(Cc4ccccc4)c(C)nc23)cc1" (field: inhibition) = 96.2

----------
# assayProcedure: M. tuberculosis growth inhibition, HTS (AID 1259417);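 note: bacteria grown with compound for 5 days at 37 °C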
# conditionSummary: M. tuberculosis DsRed fluorescence growth inhibition; concentration not given here
About 760 (69%) of roughly 1,100 compounds were called active. How the calls were made is not given here. The set was probably picked from earlier hits. The list shows a part of the results.
Assign a class; possible classes are T = active, F = inactive

Some solved cases for reference:
CCC(=O)Oc1ccc(C(=O)Nc2cc3oc4ccccc4c3cc2OC)cc1 :: F
O=C(CC12CC3CC(CC(C3)C1)C2)Nc1cccc(Cl)c1 :: T
CCOC(=O)c1cnc(-n2nc(C)cc2C)nc1Nc1ccc(OC)cc1 :: T
Cc1cccc(C)c1OCc1nnc(SCC(=O)NCCc2ccccc2)o1 :: T

Switching to the query record.
Req: Which outcome was entered for the compound "CCOC(=O)c1c(NC(=S)NC2CCN(Cc3ccccc3)CC2)sc(C)c1-c1ccccc1" in this test?
Resp: F

----------
# assayProcedure: M. tuberculosis growth inhibition, HTS (AID 1259417);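 note: bacteria grown with compound for 5 days at 37 °C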
# conditionSummary: M. tuberculosis DsRed fluorescence growth inhibition; concentration not given here
In all, about 1,100 compounds went through this assay and about 760 (69%) were called active. The rule behind the calls is not given here. So high a share suggests a set chosen from earlier hits. The list shows a part of the results.
Valid outcomes are listed here; reply with one: active, inactive

These recorded examples may help you get a feel for the data.
O=c1cc(Cc2ccccc2)nc2c(-c3ccccc3)c[nH]n12 :: active
CCOC(=O)C1=C(c2ccc(C)cc2)C(=O)c2ccccc2C1=O :: inactive
Cc1ccc(NC(=O)COc2ccc(-n3ccnc3)cc2)cc1Cl :: inactive

Req: Outcome logged for "Cc1ccc(Nc2ccc(-n3ccnc3)nn2)cc1Cl" in this assay:
Resp: active

----------
The following compounds are listed with their measured inhibition values.
# assayProcedure: M. tuberculosis growth inhibition, HTS (AID 1259417);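 note: bacteria grown with compound for 5 days at 37 °C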
# conditionSummary: M. tuberculosis growth inhibition; stronger effect = higher value; concentration not given here
About 760 (69%) of roughly 1,100 compounds were called active. So high a share suggests a set chosen from earlier hits. Some of the results follow.
API: value field is a number in %; no unit string.

Briefly, inhibition measured for "COc1ccc(C)cc1NC(=O)c1ccc(Cc2ccc(C)cc2)o1" : 101

For COCCn1nnnc1C(c1cc2cc(OC)ccc2[nH]c1=O)N1CCC(Cc2ccccc2)CC1 (stereo not given) the compound record lists inhibition as -12.1

Kindly note the recorded inhibition for "Cc1ccc(-c2nnc3sc(Cc4ccccc4)nn23)cc1" , which is 99.4

Measured inhibition of "O=C(Nc1nnc(-c2ccc(Cl)cc2)o1)c1ccccc1Br" : 44.2

Looking up "Cc1cc(N2CCCCC2)nc2ccc(NC(=O)c3ccc(Br)o3)cc12" , I see its inhibition listed as -27.2

Measured inhibition of "COC(=O)COc1ccc(NC(=O)c2ccccc2C)cc1" : 93.5

inhibition reading for Cc1sc2ncn(C(C)C(=O)OC3CCCCC3)c(=O)c2c1C (stereo not given) : 8.72

Query "COc1nc(SC)nc2sc3c(c12)CCC3" yields inhibition of 99.3

// inhibition value for "COc1ccc(Cc2nn3c(-c4ccccc4)nnc3s2)cc1" : 100

Origin of the recorded values: PubChem BioAssay AID1259417
